method: GFP drop in mixed WT/humanized-ribosome E. coli culture – GFP/RFP fluorescence, OD600, single point, bacterial rRNA inhibitor project, primary screen (AID 720706)
condition_summary: E. coli WT GFP vs humanized-ribosome RFP mutants, 24 h; measured here: OD600 growth, DMSO median 0, no signal -100
Out of some 350,000 compounds screened, about 5,500 (1.6%) were called active. This is one part of a sample in which actives are shown more often than they occur.
Below, each entry is listed alongside its reported OD600 change.
Provide only the numeric value, understood in %.

Below are worked cases with known answers.
compound: CC(=O)N1N=C(c2ccncc2)OC1(Cc1ccccc1)Cc1ccccc1
OD600 change / %: -22
//
compound: O=C1Nc2ccccc2NC(c2ccc3c(c2)OCO3)=C1N(Cc1ccc(F)cc1)C(=O)c1ccco1
OD600 change / %: -22.6
//
compound: C=CCOc1ccc(/C=C2\SC(=S)N(CCC(=O)O)C2=O)cc1
OD600 change / %: -18.9
//
compound: CNC(=O)c1ccsc1NC(=O)c1ccc(S(=O)(=O)N2CCc3ccccc32)cc1
OD600 change / %: -3.21
//
compound: O=S(=O)(c1ccccc1)N1CCc2ccccc21
OD600 change / %: 1.07
//
compound: COc1cccc(S(=O)(=O)N2CC3(CCN(C)CC3)c3c(n(C)c4cc(OC)ccc34)[C@H]2CO)c1
OD600 change / %: -1.36
//
compound: N#CCSc1nn(-c2ccc(F)cc2)c(=S)s1
OD600 change / %: -20.7
//
compound: CC(=O)N1N=C(c2ccccc2)OC1c1cccnc1 (stereo unspecified)
OD600 change / %: -5.18

Q: Give me measured OD600 change, please, for this compound: CC1CN(S(=O)(=O)c2ccc(C(=O)Nc3sccc3C(N)=O)cc2)CC(C)O1 (stereo unspecified)
Result: 0.73

Q: Give me measured OD600 change, please, for this compound: "Cc1ccccc1-n1nc(SCC(=O)O)sc1=S"
Result: 2.15

Q: Give me measured OD600 change, please, for this compound: Cc1ccc2c(c1)C1C[N+](C)(CC(=O)c3ccccc3)CCC1N2C(=O)c1ccccc1Cl (stereo unspecified)
Result: -36.3

Q: Give me measured OD600 change, please, for this compound: "CNC[C@H]1Oc2ccc(NC(=O)NC(C)C)cc2C(=O)N(C)C[C@@H]1C"
Result: 7.25

Q: Give me measured OD600 change, please, for this compound: "O=C(C1CCCCC1)N1CC(=O)N2[C@H](CO)[C@H](c3ccc(-c4ccccc4F)cc3)[C@H]2C1"
Result: -39.9
